SYSTEM_NAME: HLA-A*6802 (human)
PROTOCOL_DETAILS: competition with 125I-labelled probe peptide for purified HLA, gel filtration
CONDITION_INFO: remark: other sources report otherwise
REPORTED_PROPERTY: IC50 (µM)

A: VLLGVVFGV [Her2/neu.665L2V9]
B: VVLGVVFGI [Her2/neu.665]
*Q* Of the pair A and B , name the member with the lesser recorded IC50. Field: selected label. Fill in the label of the entry you choose.
*A* B
(B: 2 µM, A: 8 µM)
